Data provenance: paper PMC4503722

Listing of recorded EC50 by entry.
test system: NCI-H716 cells; test: cells; type: cell-based, Human; settings: S2 Table; module primary assay; 20 / 20.1 codes per legend; read-out: GLP 1 Secretion

CCCCCCCCCCCC[N+](C)(C)Cc1ccccc1 [dimethyldodecylbenzylammonium] | > 10 µM

Consider the additional compound presented here.
Exercise: Requested field: EC50. Item: COC(=O)c1nc(Cl)c(Cl)nc1N
Key: > 10 µM

* * *

test system: HT-29; test: cells; type: cell-based; settings: basal
Listing of recorded IC50/EC50, Basal_Viability ATP HT-29 (assay number 28) by entry.
Give your result in µM as a bare value.

Exercise: Requested field: IC50/EC50, Basal_Viability ATP HT-29 (assay number 28). Item: O=C1NCCN1CCN1CCC(c2cn(-c3ccc(F)cc3)c3ccc(Cl)cc23)CC1
Key: 2.8613

Exercise: Then this compound: CC1=C(/C=C/C(C)=C/C=C/C(C)=C/C(=O)Nc2ccc(O)cc2)C(C)(C)CCC1
Key: 2.1199

Exercise: Then this compound: NC(=O)n1c(O)c(C(=O)c2cccs2)c2cc(Cl)ccc21
Key: 5.6005

Exercise: Then this compound: N/C(=N\N=C\c1ccc(Cl)cc1)N/N=C/c1ccc(Cl)cc1
Key: 0.6811

Exercise: Then this compound: OC[C@H]1O[C@@H](n2cnc3c(=S)nc[nH]c32)[C@H](O)[C@@H]1O
Key: 0.1181
